# assay_overview: Cytotoxicity against human MCF10A cells after 72 hrs by MTT assay
# Type: cell-based, MCF-10A
# cond: mcf-10a, 72 h

| chemical_string | readout_unit | value_prefix | LC50 |
| --- | --- | --- | --- |
| O=C(/N=C(/NC(=O)c1cc2ccccc2s1)[Se]Cc1ccccc1)c1cc2ccccc2s1 | µM | = | 87.9 |
| C[Se]/C(=N\C(=O)c1ccno1)NC(=O)c1ccno1 | µM | = | 63.94 |
| O=C(/N=C(/NC(=O)c1cnc2ccccc2c1)[Se]Cc1ccccc1)c1cnc2ccccc2c1 | µM | > | 100 |
| C[Se]/C(=N\C(=O)c1cc2ccccc2s1)NC(=O)c1cc2ccccc2s1 | µM | = | 73.21 |
| CS/C(=N\C(=O)c1ccco1)NC(=O)c1ccco1 | µM | = | 85.69 |

Just for reference, ChEMBL document CHEMBL1649384 is where these values come from.
